System: RKO cells
Experiment: Cytotoxicity and IC50 comparison with CBI by WST assay, 48 hours
Type: cell-based, human
Conditions: Homo sapiens, WST-8
measured-quantity: IC50 (nM)
The answer is to be given in nM; state only the numeric part.

Q: Name the recorded IC50 of the compound listed here: Oc1cc2c(c3ccccc13)C(CCl)CN2 (stereo not shown) [CBI, reference compound]
A: 3

Source listed as patent US20190262457A1.
